Experiment: physchem
Assay type: physicochemical
Settings: buffer, pH 7.4
*1 amine or outer side, *2 acyl side, *3 side chain or, on linkers, in order; H or OH if unused. Side-chain parts run from the residue outwards. [ ]: non-standard residue; d: D form. The star is where a group is joined. N(2-Aminoethyl)Gly = O=C(CN(CCN[*:3])[*:1])[*:2]; C18 diacid = O=C(O)CCCCCCCCCCCCCCCCC(=O)*; C16 diacid = O=C(O)CCCCCCCCCCCCCCC(=O)*; γGlu = O=C(O)[C@H](CCC(=O)[*:2])N[*:1]; εLys = N[C@@H](CCCCN[*:1])C(=O)[*:2]; AEEA = NCCOCCOCC(=O)O; Aib = CC(C)(N)C(=O)O; Sar = CNCC(=O)O
Reported half-life at 100 μM by item:

Before answering, review these 2 worked examples.
[[record]]
substance = "H-K([γGlu-C16 diacid])[Sar]Y[Aib]EGTFTSDYSILLEK([εLys-εLys-γGlu-C18 diacid])QAAREFIEWLLAGGPSSGAPPPS-OH [Compound 16]"
recorded_measurement = "117 h"

[[record]]
substance = "H-L[N(2-Aminoethyl)Gly]([γGlu-C16 diacid])Y[Aib]EGTFTSDYSILLEEQAAREFIEWLLAGGPSK([AEEA-AEEA-γGlu-C16 diacid])GAPPPS-OH [Compound 5]"
recorded_measurement = "74 h"


Continue with the substance presented below.
Task item: Name the recorded half-life at 100 μM of the item H-K([γGlu-C18 diacid])[Sar]Y[Aib]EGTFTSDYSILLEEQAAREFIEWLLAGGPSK([εLys-εLys-γGlu-C16 diacid])GAPPPS-OH [Compound 13] in your answer.
Reply: 137 h
